- Test system: multiple myeloma cell line NCI-H929
- protocol.details: H929 Cell Viability Assay
- Type: cell-based, human
- setup.conditions: Homo sapiens, NCI-H929, 48 h, NCI-H929 cells, Celltiter-Glo
Each entry below carries its recorded log10(EC50).
recorded.endpoint: log10(EC50) (log10 of the value in µM)

INSERT INTO measurements (compound, system_under_test, experimental_value) VALUES
  ('CC(=O)N1CCC(Oc2ccc(N3CCC[C@@H]3c3csc(NC(=O)c4cccn4Cc4ccnc(F)c4)n3)cc2)C1 (some centres unmarked)', 'multiple myeloma cell line NCI-H929', -0.46),
  ('O=C(Nc1nc([C@H]2CCCN2c2ccc(OC3COC3)cc2)cs1)c1cccn1Cc1ccncc1', 'multiple myeloma cell line NCI-H929', 0.13),
  ('Cc1ocnc1/C=C/c1csc(NC(=O)c2cccn2Cc2ccncc2)n1', 'multiple myeloma cell line NCI-H929', 1.38),
  ('NC(=O)c1ccc(N2CCC[C@@H]2c2csc(NC(=O)c3cccn3CC3CCOCC3)n2)cc1', 'multiple myeloma cell line NCI-H929', 0.56),
  ('CN(C)C(=O)N1CC(Oc2ccc(N3CCC[C@@H]3c3csc(NC(=O)c4cccn4Cc4ccnc(F)c4)n3)cc2)C1', 'multiple myeloma cell line NCI-H929', 0.05);

###

- protocol.details: Liver Microsome Stability Assay (monkey)
- setup.conditions: monkey liver microsomes, with NADPH, 1.0 uM compound
Param threshold (1%) applies to Liver Microsome Stability (Multiple Species): Monkey - % Remaining after 30 min w/NADPH; output 1 (yes) when value >= threshold, 0 (no) when value < threshold.

INSERT INTO results (compound, label_value) VALUES
  ('NCCOc1ccc(N2CCC[C@@H]2c2csc(NC(=O)c3cccn3Cc3ccnc(F)c3)n2)cc1', '1 (yes)'),
  ('CC(C)c1cc(/C=C/c2csc(NC(=O)c3cccn3Cc3ccnc(F)c3)n2)n(C)n1', '0 (no)'),
  ('C[C@H](O)c1ccc(N2CCC[C@@H]2c2csc(NC(=O)c3cccn3Cc3ccnc(F)c3)n2)cc1', '0 (no)'),
  ('Cc1cc(Cn2cccc2C(=O)Nc2nc([C@H]3CCCN3c3ccccc3)cs2)ccn1', '0 (no)'),
  ('CN1C(=O)CCCC1/C=C/c1csc(NC(=O)c2cccn2Cc2ccncc2)n1 (centres unmarked)', '0 (no)'),
  ('CC(=O)N1CCC(Oc2ccc(N3CCC[C@@H]3c3csc(NC(=O)c4cc(C)cn4Cc4ccnc(F)c4)n3)cc2)CC1', '1 (yes)'),
  ('CNCCOc1ccc(N2CCC[C@@H]2c2csc(NC(=O)c3cccn3Cc3ccnc(F)c3)n2)cc1', '1 (yes)'),
  ('O=C(Nc1nc([C@H]2CCCN2c2ccc(OC3CCNCC3F)cc2)cs1)c1cccn1Cc1ccnc(F)c1 (some centres unmarked)', '1 (yes)'),
  ('NC(=O)Nc1ccc(N2CCC[C@@H]2c2csc(NC(=O)c3cccn3Cc3ccnc(F)c3)n2)cc1', '1 (yes)'),
  ('C#CCn1cccc1C(=O)Nc1nc([C@H]2CCCN2c2ccccc2)cs1', '1 (yes)'),
  ('Cc1ccc(/C=C/c2csc(NC(=O)c3cccn3Cc3ccncc3)n2)nc1F', '1 (yes)'),
  ('CC(=O)Nc1ccc(N2CCC[C@@H]2c2csc(NC(=O)c3cccn3Cc3ccnc(F)c3)n2)cc1F', '0 (no)'),
  ('CC1=NC(C)(/C=C/c2csc(NC(=O)c3cccn3Cc3ccncc3)n2)CO1 (centres unmarked)', '1 (yes)'),
  ('O=C(Nc1ccccn1)c1csc(NC(=O)c2cccn2Cc2ccncc2)n1', '1 (yes)'),
  ('NC(=O)CCCn1cccc1C(=O)Nc1nc([C@H]2CCCN2c2ccccc2)cs1', '1 (yes)'),
  ('O=C(Nc1nc([C@H]2CCCN2c2ccc(OC3CN(C(=O)CO)C3)cc2)cs1)c1cccn1Cc1ccnc(F)c1', '1 (yes)'),
  ('COc1ccc(O[C@H]2CC[C@H](c3csc(NC(=O)c4cccn4Cc4ccncc4)n3)C2)nc1', '0 (no)'),
  ('O=C(Nc1nc(/C=C/c2ccc3c(n2)CCCC3)cs1)c1cccn1Cc1ccnc(F)c1', '1 (yes)'),
  ('Cc1cnccc1Cn1cccc1C(=O)Nc1nc([C@H]2CCCN2c2ccccc2)cs1', '0 (no)'),
  ('O=C(NC/C=C/c1csc(NC(=O)c2cccn2Cc2ccncc2)n1)c1ccccc1', '0 (no)'),
  ('CN(C)CCO[C@@H]1C[C@H](c2csc(NC(=O)c3cccn3Cc3ccncc3)n2)N(c2ccccc2)C1', '0 (no)'),
  ('C#CCCn1cccc1C(=O)Nc1nc([C@H]2CCCN2c2ccccc2)cs1', '0 (no)'),
  ('O=C(Nc1nc([C@H]2CCCN2c2ccc(Cl)cc2)cs1)c1cccn1Cc1ccncc1', '1 (yes)'),
  ('N#CC1CC(Cn2cccc2C(=O)Nc2nc([C@H]3CCCN3c3ccccc3)cs2)C1 (some centres unmarked)', '1 (yes)'),
  ('CCn1cnc(/C=C/c2csc(NC(=O)c3cccn3Cc3ccnc(F)c3)n2)c1', '0 (no)'),
  ('O=C(Nc1nc([C@H]2CCCN2c2ccccc2)cs1)c1cccn1CC1CCCCC1', '1 (yes)'),
  ('O=C(Nc1nc([C@H]2CCCN2c2ccc(CCO)cc2)cs1)c1cccn1Cc1ccnc(F)c1', '1 (yes)'),
  ('Cc1ccc(/C=C/c2csc(NC(=O)c3cccn3CC3CCOCC3)n2)nc1F', '0 (no)'),
  ('COCc1ccc(N2CCC[C@@H]2c2csc(NC(=O)c3cccn3Cc3ccncc3)n2)cc1', '1 (yes)'),
  ('O=C(Nc1nc(Cc2ccccn2)cs1)c1cccn1Cc1ccncc1', '1 (yes)'),
  ('CN1c2ccccc2CCC1/C=C/c1csc(NC(=O)c2cccn2Cc2ccncc2)n1 (centres unmarked)', '0 (no)'),
  ('Cc1coc(/C=C/c2csc(NC(=O)c3cccn3Cc3ccncc3)n2)n1', '0 (no)');

###

- protocol.details: Liver Microsome Stability Assay (rat)
- setup.conditions: rat liver microsomes, with NADPH, 1.0 uM compound
Liver Microsome Stability (Multiple Species): Rat - % Remaining after 30 min w/NADPH under 10% gets 1 (yes), anything at or over 10% gets 0 (no).

INSERT INTO results (molecule, label_value) VALUES
  ('CC(=O)NC/C=C/c1csc(NC(=O)c2cccn2Cc2ccncc2)n1 [Compound E30]', '0 (no)'),
  ('Nc1ccc(N2CCC[C@@H]2c2csc(NC(=O)c3cccn3Cc3ccncc3)n2)cc1 [Compound A20]', '0 (no)'),
  ('CC(C(N)=O)n1cnc(/C=C/c2csc(NC(=O)c3cccn3Cc3ccnc(F)c3)n2)c1 (centres unmarked) [Compound B113]', '0 (no)'),
  ('O=C(Nc1nc(Cc2ccccn2)cs1)c1cccn1Cc1ccncc1 [Compound E11]', '1 (yes)'),
  ('NC(=O)CCn1cnc(/C=C/c2csc(NC(=O)c3cccn3Cc3ccnc(F)c3)n2)c1 [Compound B109]', '0 (no)'),
  ('COCc1ccc(N2CCC[C@@H]2c2csc(NC(=O)c3cccn3Cc3ccncc3)n2)cc1 [Compound A48]', '1 (yes)'),
  ('O=C(Nc1nc(CCc2coc(-c3ccccc3)n2)cs1)c1cccn1Cc1ccncc1 [Compound E12]', '1 (yes)'),
  ('CN1CCOC(/C=C/c2csc(NC(=O)c3cccn3Cc3ccncc3)n2)C1 (centres unmarked) [Compound B6]', '0 (no)');

###

- protocol.details: Liver Microsome Stability Assay (rat)
- setup.conditions: rat liver microsomes, with NADPH, 1.0 uM compound
recorded.endpoint: Liver Microsome Stability (Multiple Species): Rat - % Remaining after 30 min w/NADPH

INSERT INTO assay_data (compound, experimental_value) VALUES
  ('NC(=O)c1cc(C(=O)Nc2nc([C@H]3CCCN3c3ccccc3)cs2)n(Cc2ccnc(F)c2)c1', '24.1%'),
  ('CC(C)n1cnc(/C=C/Cc2csc(NC(=O)c3cccn3Cc3ccnc(F)c3)n2)c1', '5.01%'),
  ('CN(C)C(=O)CCCCn1cccc1C(=O)Nc1nc([C@H]2CCCN2c2ccccc2)cs1', '6.4%'),
  ('CC(C)Oc1ccc(N2CCC[C@@H]2c2csc(NC(=O)c3cccn3Cc3ccncc3)n2)cc1', '26.5%'),
  ('C[C@H](N)c1ccc(N2CCC[C@@H]2c2csc(NC(=O)c3cccn3Cc3ccncc3)n2)cc1', '82.1%'),
  ('CC(C)c1cccc2nc(/C=C/c3csc(NC(=O)c4cccn4Cc4ccnc(F)c4)n3)cn12', '3.87%'),
  ('C/C(=C\c1ccc(OC(F)(F)F)cn1)c1csc(NC(=O)c2cccn2Cc2ccncc2)n1 [Compound E2]', '35.4%'),
  ('O=C(Nc1nc([C@H]2CCCN2c2ccccc2)cs1)c1cccn1CC1CC(F)(F)C1', '20.7%'),
  ('O=C(Nc1nc(/C=C/[C@H]2CCCCN2)cs1)c1cccn1Cc1ccncc1', '51.2%'),
  ('O=C(Nc1nc([C@H]2CCCN2c2ccc(OC3CCNCC3)cc2)cs1)c1cccn1Cc1ccncc1', '44.8%'),
  ('C[S+]([O-])N1CC(Oc2ccc(N3CCC[C@@H]3c3csc(NC(=O)c4cccn4Cc4ccnc(F)c4)n3)cc2)C1 (stereo partly shown)', '19.8%'),
  ('O=C(Nc1nc(/C=C/c2ncco2)cs1)c1cccn1Cc1ccncc1', '0.87%'),
  ('CC(=O)NCc1ccc(N2CCC[C@@H]2c2csc(NC(=O)c3cccn3Cc3ccncc3)n2)cc1', '0.29%'),
  ('NC(=O)Cn1cnc(/C=C/c2csc(NC(=O)c3cccn3Cc3ccnc(F)c3)n2)c1', '30%'),
  ('Cc1ccc(/C=C/c2csc(NC(=O)c3cccn3Cc3ccncc3)n2)nc1F', '1.44%'),
  ('O=C(Nc1nc([C@H]2CCCN2c2ccccc2)cs1)c1ccc[nH]1', '1.33%'),
  ('CC(=O)N1CCC(Oc2ccc(N3CCC[C@@H]3c3csc(NC(=O)c4cccn4CC4CCOCC4)n3)cc2)CC1', '30%'),
  ('CCc1ccc(N2CCC[C@@H]2c2csc(NC(=O)c3cccn3CC3CCOCC3)n2)cc1', '36%'),
  ('C[C@@H](O)c1ccc(N2CCC[C@@H]2c2csc(NC(=O)c3cccn3Cc3ccnc(F)c3)n2)cc1', '7.97%'),
  ('CN1C(=O)CCCC1/C=C/c1csc(NC(=O)c2cccn2Cc2ccncc2)n1 (stereo not shown)', '1.18%'),
  ('CC(=O)N1CCC(c2ccc(N3CCC[C@@H]3c3csc(NC(=O)c4cccn4Cc4ccncc4)n3)cc2)CC1', '0.11%'),
  ('O=C(Nc1nc([C@H]2CCCN2c2cnccn2)cs1)c1cccn1Cc1ccncc1', '0.21%'),
  ('Cc1ocnc1/C=C/c1csc(NC(=O)c2cccn2Cc2ccnc(F)c2)n1', '0.41%'),
  ('Cc1cc(C(=O)Nc2nc([C@H]3CCCN3c3ccc(NC(=O)N(C)C)cc3)cs2)n(Cc2ccnc(F)c2)c1', '50.2%'),
  ('O=C1CCCC(/C=C/c2csc(NC(=O)c3cccn3Cc3ccncc3)n2)N1 (stereo not shown)', '6.37%'),
  ('N#Cc1ccccc1Cn1cccc1C(=O)Nc1nc([C@H]2CCCN2c2ccccc2)cs1', '20.2%'),
  ('O=C(Nc1nc([C@H]2CCCN2c2ccc(CCO)cc2)cs1)c1cccn1Cc1ccnc(F)c1', '3.42%'),
  ('CC(=O)Nc1ccc(N2CCC[C@@H]2c2csc(NC(=O)c3cccn3C[C@@H](C)CC#N)n2)cc1', '16.5%'),
  ('NCc1ccc(N2CCC[C@@H]2c2csc(NC(=O)c3cccn3Cc3ccncc3)n2)cc1', '30%'),
  ('O=C(Nc1nc(/C=C/C2CCc3ccccc3N2)cs1)c1cccn1Cc1ccncc1 (stereo not shown)', '2.33%'),
  ('CC(=O)N1CC(CCc2ccc(N3CCC[C@@H]3c3csc(NC(=O)c4cccn4Cc4ccnc(F)c4)n3)cc2)C1', '18.6%');
